Molecular target: fusion protein PRQ
Sequence (chain, as listed by the source): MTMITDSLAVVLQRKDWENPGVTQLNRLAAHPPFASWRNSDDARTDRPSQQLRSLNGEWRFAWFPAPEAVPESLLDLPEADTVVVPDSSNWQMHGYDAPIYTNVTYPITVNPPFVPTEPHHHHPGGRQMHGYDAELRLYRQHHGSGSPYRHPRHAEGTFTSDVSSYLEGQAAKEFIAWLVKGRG

# protein, relative cleavage efficiency
data = [
    ("OmpT protease variant OmpT D97G (protein) STETLSFTPDNINADISLGTLSGKTKERVYLAEEGGRKVSQLDWKFNNAAIIKGAINWDLMPQISIGAAGWTTLGSRGGNMVDQDWMDSSNPGTWTGESRHPDTQLNYANEFDLNIKGWLLNEPNYRLGLMAGYQESRYSFTARGGSYIYSSEEGFRDDIGSFPNGERAIGYKQRFKMPYIGLTGSYRYEDFELGGTFKYSGWVESSDNDEHYDPGKRITYRSKVKDQNYYSVAVNAGYYVTPNAKVYVEGAWNRVTNKKGNTSLYDHNNNTSDYSKNGAGIENYNFITTAGLKYTF", "less than 3.0%"),
    ("OmpT protease variant OmpT D97P (protein) STETLSFTPDNINADISLGTLSGKTKERVYLAEEGGRKVSQLDWKFNNAAIIKGAINWDLMPQISIGAAGWTTLGSRGGNMVDQDWMDSSNPGTWTPESRHPDTQLNYANEFDLNIKGWLLNEPNYRLGLMAGYQESRYSFTARGGSYIYSSEEGFRDDIGSFPNGERAIGYKQRFKMPYIGLTGSYRYEDFELGGTFKYSGWVESSDNDEHYDPGKRITYRSKVKDQNYYSVAVNAGYYVTPNAKVYVEGAWNRVTNKKGNTSLYDHNNNTSDYSKNGAGIENYNFITTAGLKYTF", "less than 3.0%"),
    ("OmpT protease variant OmpT D97W (protein) STETLSFTPDNINADISLGTLSGKTKERVYLAEEGGRKVSQLDWKFNNAAIIKGAINWDLMPQISIGAAGWTTLGSRGGNMVDQDWMDSSNPGTWTWESRHPDTQLNYANEFDLNIKGWLLNEPNYRLGLMAGYQESRYSFTARGGSYIYSSEEGFRDDIGSFPNGERAIGYKQRFKMPYIGLTGSYRYEDFELGGTFKYSGWVESSDNDEHYDPGKRITYRSKVKDQNYYSVAVNAGYYVTPNAKVYVEGAWNRVTNKKGNTSLYDHNNNTSDYSKNGAGIENYNFITTAGLKYTF", "less than 3.0%"),
]
